Each recorded value in this set is attributed to patent US20240101668A1.

Target: T1, huCLL1-Q244-Avi-Tev-His (human, UniProt Q5QGZ9 65-265);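 also: Bio-layer interferometry with scFvs captured on biosensors via anti-V5 antibody, exposed 2 min to CLL-1 K244 or Q244 protein, 5 min dissociation, scored as binding, no binding or ambiguous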
T1 construct: extracellular domain; also called CLL-1 K244Q
T1 sequence (looked up): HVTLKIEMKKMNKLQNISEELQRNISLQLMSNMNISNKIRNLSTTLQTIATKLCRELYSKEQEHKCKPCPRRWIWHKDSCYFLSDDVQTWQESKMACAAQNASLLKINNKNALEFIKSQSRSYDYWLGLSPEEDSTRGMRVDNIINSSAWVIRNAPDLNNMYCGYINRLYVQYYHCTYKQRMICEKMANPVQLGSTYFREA
Experiment: BLI
quantity_kind: binding result

* Polypeptide No. 53 (scFv, V domains shown, scFv) VH: QVQLVQSGAEVKKPGASVKVSCKASGGTFSSYAISWVRQAPGQGLEWMGWINPDSGDASYARKFQGRVTMTRDTSTSTVYMELSSLRSEDTAVYYCATFGEEAFDIWGQGTMVTVSS VL: DIQMTQSPSSLSASVGDRVTITCRASQNIGSWLAWYQQKPGKAPKLLIYGASILQSGVPSRFSGSGSGTDFTLTISSLQPEDFATYYCQQANSFPLTFGGGTKLEIKR | no binding
* Polypeptide No. 80 (scFv, V domains shown, scFv) VH: QVQLVQSGAEVKKPGASVKVSCKASGFTFTSYYMHWVRQAPGQGLEWMGWMNPNSGNTGYAQRFQGRVTMTRDTSTSTVYMELSSLRSEDTAVYYCARGHSRTDYGMDVWGQGTTVTVSS VL: DIQMTQSPSSLSASVGDRVTITCRASQSISSWLAWYQQKPGKAPKLLIYDTSSLQSGVPSRFSGSGSGTDFTLTISSLQPEDFATYYCQQGYSTPLTFGQGTKVEIKR | binds
* Polypeptide No. 63 (scFv, V domains shown, scFv) VH: QVQLVQSGAEVKKPGASVKVSCKASGYTFTGYYVHWVRQAPGQGLEWMGVINPSGGGSPSYAQKFQGRVTMTRDTSTSTVYMELSSLRSEDTAVYYCARDRSDVDYGMDVWGQGTTVTVSS VL: DIQMTQSPSSLSASVGDRVTITCQASQDISNYLNWYQQKPGKAPKLLIYDASNLQSGVPSRFSGSGSGTDFTLTISSLQPEDFATYYCLQHNSYPLTFGGGTKVEIKR | no binding
